testSummary: Everolimus single-dose pharmacokinetics
Format: in vivo, patients
conditionContext: human, plasma, po, CL/F, subject 1002; after first oral dose of everolimus 30 mg, with sunitinib 50 mg daily; plasma
quantityKind: CL/F
Numeric answer plus unit only.

Memo: CO[C@H]1C[C@@H]2CC[C@@H](C)[C@@](O)(O2)C(=O)C(=O)N2CCCC[C@H]2C(=O)O[C@H]([C@H](C)C[C@@H]2CC[C@@H](OCCO)[C@H](OC)C2)CC(=O)[C@H](C)/C=C(\C)[C@@H](O)[C@@H](OC)C(=O)[C@H](C)C[C@H](C)/C=C/C=C/C=C/1C , reported CL/F: 3.34 mL/min/kg
